// activation at 50 µM lookup, one value per entry
Target: TRAP1 enzyme (Homo sapiens, UniProt Q12931)
Construct: 150 nM Trap1 enzyme was incubated with various concentrations of the test compound
Sequence (Q12931 60-704): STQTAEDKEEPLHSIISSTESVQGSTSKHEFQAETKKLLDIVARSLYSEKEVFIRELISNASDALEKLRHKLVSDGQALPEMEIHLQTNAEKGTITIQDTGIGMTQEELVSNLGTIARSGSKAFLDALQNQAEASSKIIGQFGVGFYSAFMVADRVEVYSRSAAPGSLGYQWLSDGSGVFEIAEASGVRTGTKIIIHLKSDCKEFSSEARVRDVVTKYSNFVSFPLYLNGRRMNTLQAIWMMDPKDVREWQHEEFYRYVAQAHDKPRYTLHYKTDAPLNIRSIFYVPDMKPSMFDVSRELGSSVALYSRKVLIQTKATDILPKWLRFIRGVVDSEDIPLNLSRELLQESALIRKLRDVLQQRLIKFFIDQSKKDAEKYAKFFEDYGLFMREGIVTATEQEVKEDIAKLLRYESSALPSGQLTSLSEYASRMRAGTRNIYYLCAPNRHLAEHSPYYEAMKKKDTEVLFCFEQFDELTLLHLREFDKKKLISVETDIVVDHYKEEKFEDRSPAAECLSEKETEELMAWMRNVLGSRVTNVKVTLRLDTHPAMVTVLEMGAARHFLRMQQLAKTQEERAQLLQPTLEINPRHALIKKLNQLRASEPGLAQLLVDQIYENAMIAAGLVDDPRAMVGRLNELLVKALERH
Test: ADP Glo assay of TRAP1 ATPase activity
Assay type: biochemical
Details: 1 h; compound concentration 50 μM; read-out: ADP-Glo Percent Activation at 50 μM

| Line Notation | activation at 50 µM |
| --- | --- |
| COc1ncc(NC(=O)c2cnn3c2CCCC3)cc1S(=O)(=O)Nc1c(C)cccc1C | 181 to 352% |

Fill in: activation at 50 µM on TRAP1 enzyme (Homo sapiens, UniProt Q12931), entry COc1ncc(NC(=O)c2ccc3c(c2)CC(=O)N3)cc1S(=O)(=O)Nc1c(C)cccc1C 181 to 352%

Fill in: activation at 50 µM on TRAP1 enzyme (Homo sapiens, UniProt Q12931), entry COc1ncc(NC(=O)c2n[nH]cc2C)cc1S(=O)(=O)Nc1c(C)cccc1C 151 to 180%

Fill in: activation at 50 µM on TRAP1 enzyme (Homo sapiens, UniProt Q12931), entry CCc1oncc1C(=O)Nc1cnc(OC)c(S(=O)(=O)Nc2c(C)cccc2C)c1 120 to 150%

====

// Emax lookup, one value per entry
Target: TRAP1 enzyme (Homo sapiens, UniProt Q12931)
Construct: 150 nM Trap1 enzyme was incubated with various concentrations of the test compound
Sequence (Q12931 60-704): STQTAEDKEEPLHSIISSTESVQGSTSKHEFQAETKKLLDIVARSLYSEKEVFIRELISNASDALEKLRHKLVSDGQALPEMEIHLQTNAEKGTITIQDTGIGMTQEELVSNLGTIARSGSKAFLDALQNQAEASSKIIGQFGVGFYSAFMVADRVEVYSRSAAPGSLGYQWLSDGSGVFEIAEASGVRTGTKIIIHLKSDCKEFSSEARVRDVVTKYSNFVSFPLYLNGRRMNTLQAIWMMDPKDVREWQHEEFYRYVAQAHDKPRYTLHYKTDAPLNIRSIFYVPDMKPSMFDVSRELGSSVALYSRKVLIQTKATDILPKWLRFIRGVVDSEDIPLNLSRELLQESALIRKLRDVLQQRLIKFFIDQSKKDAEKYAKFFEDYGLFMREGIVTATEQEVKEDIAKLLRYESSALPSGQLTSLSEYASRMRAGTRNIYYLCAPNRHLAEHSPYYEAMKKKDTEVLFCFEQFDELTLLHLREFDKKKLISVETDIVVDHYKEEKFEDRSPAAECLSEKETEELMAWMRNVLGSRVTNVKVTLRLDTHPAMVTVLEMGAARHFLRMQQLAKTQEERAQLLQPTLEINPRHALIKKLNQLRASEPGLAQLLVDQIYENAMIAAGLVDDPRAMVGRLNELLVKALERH
Test: ADP Glo assay of TRAP1 ATPase activity
Assay type: biochemical
Conditions: maximal percent activation; read-out: ADP GLO DRC: Mean Emax

Solved cases below.
| Molecule | Emax |
| --- | --- |
| COc1ncc(NC(=O)c2csc(-c3ccccc3)n2)cc1S(=O)(=O)Nc1ccc(C#N)nc1 [compound 1785] | 200 to 300% |
| COc1ncc(NC(=O)c2csc(-c3ccccc3)n2)cc1S(=O)(=O)Nc1cc(C)cnc1C [compound 1792] | 119 to 159% |

Fill in: Emax on TRAP1 enzyme (Homo sapiens, UniProt Q12931), entry COc1ncc(NC(=O)c2csc(-c3ccccc3)n2)cc1S(=O)(=O)Nc1ccc(Cl)nc1C [compound 1382] 200 to 300%

Fill in: Emax on TRAP1 enzyme (Homo sapiens, UniProt Q12931), entry COc1ncc(NC(=O)c2csc(-c3ccccc3)n2)cc1S(=O)(=O)Nc1sccc1C [compound 1954] 119 to 159%

Fill in: Emax on TRAP1 enzyme (Homo sapiens, UniProt Q12931), entry COc1cccc(C)c1NS(=O)(=O)c1cc(NC(=O)c2coc(-c3ccccc3)n2)cnc1OC [compound 1484] 160 to 199%

Fill in: Emax on TRAP1 enzyme (Homo sapiens, UniProt Q12931), entry COc1ncc(NC(=O)c2coc(-c3ccccc3)n2)cc1S(=O)(=O)Nc1c(C)cc(C#N)cc1C [compound 1965] 119 to 159%

Fill in: Emax on TRAP1 enzyme (Homo sapiens, UniProt Q12931), entry COc1ncc(NC(=O)c2ncc(-c3ccccc3)o2)cc1S(=O)(=O)Nc1cc(C2CCCCC2)no1 [compound 1640] 160 to 199%

Fill in: Emax on TRAP1 enzyme (Homo sapiens, UniProt Q12931), entry COc1ncc(NC(=O)c2c[nH]c(C(F)(F)F)n2)cc1S(=O)(=O)Nc1c(C)cccc1C [compound 2474] 160 to 199%

Fill in: Emax on TRAP1 enzyme (Homo sapiens, UniProt Q12931), entry COc1ncc(NC(=O)c2cn(C)c3ncccc23)cc1S(=O)(=O)Nc1ccc(Cl)cc1 [compound 1359] 119 to 159%
